- target_of_assay: SMARCA2 (Homo sapiens, UniProt P51531)
- Sequence (P51531 whole entry): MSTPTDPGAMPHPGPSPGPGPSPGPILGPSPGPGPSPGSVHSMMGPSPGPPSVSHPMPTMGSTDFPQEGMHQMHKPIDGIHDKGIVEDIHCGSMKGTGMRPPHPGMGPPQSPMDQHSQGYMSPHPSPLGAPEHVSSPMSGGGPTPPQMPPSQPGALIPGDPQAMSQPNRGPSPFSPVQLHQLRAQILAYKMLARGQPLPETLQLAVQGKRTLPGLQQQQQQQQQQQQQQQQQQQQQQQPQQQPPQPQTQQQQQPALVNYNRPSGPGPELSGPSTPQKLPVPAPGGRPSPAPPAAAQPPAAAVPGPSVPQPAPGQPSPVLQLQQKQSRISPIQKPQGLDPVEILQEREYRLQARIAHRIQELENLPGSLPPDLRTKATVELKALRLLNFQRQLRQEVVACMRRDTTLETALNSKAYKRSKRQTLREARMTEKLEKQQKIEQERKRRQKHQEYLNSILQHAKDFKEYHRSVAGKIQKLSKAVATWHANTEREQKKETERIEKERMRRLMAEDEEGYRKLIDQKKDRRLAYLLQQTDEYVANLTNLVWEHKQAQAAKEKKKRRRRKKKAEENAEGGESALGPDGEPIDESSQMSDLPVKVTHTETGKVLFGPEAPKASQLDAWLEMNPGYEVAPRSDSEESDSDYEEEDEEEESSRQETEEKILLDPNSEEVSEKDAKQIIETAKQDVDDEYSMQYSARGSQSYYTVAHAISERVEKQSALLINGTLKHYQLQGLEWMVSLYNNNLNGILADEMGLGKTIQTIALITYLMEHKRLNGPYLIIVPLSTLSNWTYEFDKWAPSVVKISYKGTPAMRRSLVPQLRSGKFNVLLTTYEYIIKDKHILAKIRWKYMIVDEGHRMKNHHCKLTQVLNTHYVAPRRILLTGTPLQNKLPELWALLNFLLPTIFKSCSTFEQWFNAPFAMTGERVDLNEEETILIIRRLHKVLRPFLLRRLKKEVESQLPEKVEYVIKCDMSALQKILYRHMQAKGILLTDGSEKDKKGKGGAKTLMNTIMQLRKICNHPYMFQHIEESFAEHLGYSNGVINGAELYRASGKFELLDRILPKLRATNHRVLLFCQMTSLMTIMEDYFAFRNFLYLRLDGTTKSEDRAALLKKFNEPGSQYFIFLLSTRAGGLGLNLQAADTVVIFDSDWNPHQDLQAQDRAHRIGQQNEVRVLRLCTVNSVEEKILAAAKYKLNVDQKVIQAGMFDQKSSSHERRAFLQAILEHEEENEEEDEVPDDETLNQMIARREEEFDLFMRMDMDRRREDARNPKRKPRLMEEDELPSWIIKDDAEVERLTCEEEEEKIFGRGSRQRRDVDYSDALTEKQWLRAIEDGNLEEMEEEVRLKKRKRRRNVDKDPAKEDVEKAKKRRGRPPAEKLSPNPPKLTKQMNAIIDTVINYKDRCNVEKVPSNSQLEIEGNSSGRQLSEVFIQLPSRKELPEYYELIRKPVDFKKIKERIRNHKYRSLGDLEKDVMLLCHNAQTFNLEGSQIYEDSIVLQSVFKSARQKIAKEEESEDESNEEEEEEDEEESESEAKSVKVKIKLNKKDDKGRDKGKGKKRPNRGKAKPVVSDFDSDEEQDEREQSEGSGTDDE
- assay_method_text: SMARCA2 Western blot degradation in MV4-11 cells
- Assay type: cell-based
- Parameters: SMARCA2/SMARCA4 protein degradation selectivity in MV4-11 cells; endogenous in cells; host or cells: MV4-11
- experimental_conditions: MV4-11, MV4-11 cells, 24 h; read-out: SMARCA2 MSD MV411 degradation 24 h: average Dmax %
metric: Dmax

Worked cases, answers included:
molecule	Dmax
Cc1ncsc1-c1ccc(CNC(=O)[C@@H]2C[C@@H](O)CN2C(=O)C(c2cc(OCCN3CCC(N4CCC(c5cnc(N6CCc7[nH]c8nnc(-c9ccccc9O)cc8c7[C@@H]6C)nc5)CC4)CC3)no2)C(C)C)cc1 (single isomer, unassigned)	> 90%
C#Cc1ccc(CNC(=O)[C@@H]2C[C@@H](O)CN2C(=O)[C@@H](NC(=O)N2CC3(CC(N4CCC(c5cnc(N6CCc7[nH]c8nnc(-c9ccccc9O)cc8c7[C@@H]6C)nc5)CC4)C3)C2)C(C)(C)C)cc1	70 to 90%
Cc1ncsc1-c1ccc(CNC(=O)[C@@H]2C[C@@H](O)CN2C(=O)C(c2cc(OCCCCN3CCC(c4cnc(N5CCN6c7cc(-c8ccccc8O)nnc7NC[C@@H]6C5)nc4)CC3)no2)C(C)C)cc1 (stereo partly shown)	> 90%
C#Cc1c(F)cc(CNC(=O)[C@@H]2C[C@@H](O)CN2C(=O)[C@@H](NC(=O)N2CC3(CC(N4CCC(c5cnc(N6CCc7[nH]c8nnc(-c9ccccc9O)cc8c7[C@H]6C)nc5)CC4)C3)C2)C(C)(C)C)cc1F	70 to 90%
C#Cc1ccc([C@H](C)NC(=O)[C@@H]2C[C@@H](O)CN2C(=O)[C@@H](NC(=O)N2CC3(CC(N4CCC(c5cnc(N6CCc7[nH]c8nnc(-c9ccccc9O)cc8c7[C@H]6C)nc5)CC4)C3)C2)C(C)(C)C)cc1	70 to 90%
Cc1ncsc1-c1ccc(CNC(=O)[C@@H]2C[C@@H](O)CN2C(=O)[C@@H](NC(=O)C2(F)CC2)C(C)(C)C)c(OC2CN(CCN3CCC(c4cnc(N5CCc6[nH]c7nnc(-c8ccccc8O)cc7c6C5C)nc4)CC3)C2)c1 (stereo partly shown)	70 to 90%
C#Cc1ccc(CNC(=O)[C@@H]2C[C@@H](O)CN2C(=O)[C@@H](NC(=O)N2CC3(CC(N4CCC(c5cnc(N6CCc7[nH]c8nnc(-c9ccccc9O)cc8c7[C@H]6C)nc5)CC4)C3)C2)C(C)(C)C)cc1Cl	> 90%
C#Cc1cc(Cl)c(CNC(=O)[C@@H]2C[C@@H](O)CN2C(=O)[C@@H](NC(=O)[C@H]2CC3(C2)C[C@H](N2CCC(N4CCC(N5CCN6c7cc(-c8ccccc8O)nnc7NC[C@H]6C5)CC4)CC2)C3)C(C)(C)C)c(OC)c1 (single isomer, unassigned)	< 50%

Looking up Cc1ncsc1-c1ccc(CNC(=O)[C@@H]2C[C@@H](O)CN2C(=O)[C@H](c2cc(N3CC4(CC(N5CCC(c6cnc(N7CCN8c9cc(-c%10ccccc%10O)nnc9NC[C@H]8C7)nc6)CC5)C4)C3)no2)C(C)C)cc1 (single isomer, unassigned) , I found its Dmax recorded as > 90%

The recorded Dmax for Cc1ncsc1-c1ccc(CNC(=O)[C@@H]2C[C@@H](O)CN2C(=O)[C@@H](NC(=O)[C@H]2CC3(C2)C[C@H](N2CCC(c4ccnc(N5CCN6c7cc(-c8ccccc8O)nnc7NC[C@H]6C5)n4)CC2)C3)C(C)(C)C)cc1 (single isomer, unassigned) is > 90%

Documented Dmax of C#Cc1ccc([C@@H](C)NC(=O)[C@@H]2C[C@@H](O)CN2C(=O)C(c2cc(N3CCC(CN4CCC(N5CCC(N6CCN7c8cc(-c9ccccc9O)nnc8NC[C@H]7C6)CC5)CC4)CC3)no2)C(C)C)c(Cl)c1 (stereo partly shown) : 70 to 90%

The molecule identified as Cc1ncsc1-c1ccc(CNC(=O)[C@@H]2C[C@@H](O)CN2C(=O)[C@@H](NC(=O)N2CCC3(CC2)CC(N2CCC(c4cnc(N5CCN6c7cc(-c8ccccc8O)nnc7NC[C@H]6C5)nc4)CC2)C3)C(C)(C)C)cc1 registered its Dmax at < 50%

Documented Dmax of C#Cc1ccc(CNC(=O)[C@@H]2C[C@@H](O)CN2C(=O)[C@@H](NC(=O)N2CC3(CC(N4CCC(N5CCC(N6CCN7c8cc(-c9ccccc9O)nnc8NC[C@H]7C6)CC5)CC4)C3)C2)C(C)(C)C)cc1 : > 90%

For record C#Cc1ccc(CNC(=O)[C@@H]2C[C@@H](O)CN2C(=O)[C@@H](NC(=O)N2CC3(CC(N4CCC(c5cnc(N6CCc7[nH]c8nnc(-c9ccccc9O)cc8c7[C@H]6C)nc5)CC4)C3)C2)C(C)(C)CCO)c(Cl)c1 (single isomer, unassigned) the listed Dmax is 70 to 90%

Memo: C#Cc1ccc(CNC(=O)[C@@H]2C[C@@H](O)CN2C(=O)[C@@H](NC(=O)[C@H]2CCC3(CC2)C[C@H](N2CCC(N4CCC(N5CCN6c7cc(-c8ccccc8O)nnc7NC[C@H]6C5)CC4)CC2)C3)C(C)(C)C)cc1 (single isomer, unassigned) , reported Dmax: 70 to 90%

Notebook: C#Cc1ccc(CNC(=O)[C@@H]2C[C@@H](O)CN2C(=O)[C@H](NC(=O)[C@H]2CCC3(CC2)C[C@H](N2CCN(c4cnc(N5CCN6c7cc(-c8ccccc8O)nnc7NC[C@H]6C5)nc4)CC2)C3)C(C)(C)CCO)c(Cl)c1 (single isomer, unassigned) , Dmax read as < 50%
